Items are presented alongside their recorded EC50.
molecular target: hMPV B2 F monomer (human metapneumovirus); experiment: ELISA on coated recombinant protein, OD 405 nm
Don't forget the unit after the number, please.

Query :: Determine from records and report EC50 for MPV491 (antibody, V domains shown) VH: QVQLQESGPGLVKSSQTLSLTCTVSGGSISSVTSHWTWIRQHPGKGLEWIGYIFSSGTTYYSPSLRSRLTMSVDTSKNQFSLQLSSVTAADTAMYYCARGIYCGDSCYKGTDYWGRGTLVTVSS VL: IRLMTQTPVTLPVTPGEPASISCRSSQSLLHSNGYNYLDWYLQKPGQSPQLLIYRGSTRASGVPDRFSGSGSGTEFTLKISRVEAEDVGVYYCMQGLQTPYTFGQGTKLESR
Result :: 0.48 µg/mL

Query :: Determine from records and report EC50 for MPV488 (antibody, V domains shown) VH: EVQLVQSGFEVKKPGASVKVSCKASGYNFNNYGISWVRQAPGQGLEWMGWISAYTGNTNEAQKFQGRVSMTTDTSTSTAYMEVRSLRSDDTAVYYCARDIGSSMFYSYFYGMDVWGQGTTVIVSS VL: SLSVSLGERATINCKSSESVLYNSNNENYLDWYQQKPGQPPKLLIYWASTRASGVPDRFSGSASGTDFTLTISSLQAEDVAVYYCQQYYSTPRTFGQGTKVEIK
Result :: 0.063 µg/mL

---
Query :: Determine from records and report EC50 for MPV485 (antibody, V domains shown) V domain 1: EVQLQEPGPGLVKPSETLSLTCTVSGGSISSTNSFWGWVRQPPGKGLEWIGSIYYSGTTYYNSSLKSRVTISVDTSKNQFSLRLSSVTAADTAVYYCARQGLTSSWYDGSGLDVWG V domain 2: SYELTQPPSVSVSPGQTASITCSGDKLGNKYACWYQQRPGQSPVLVIYQDTKRPSGIPERFSGSNSGNTATLTISGTQAMDEADYYCQAWDSNTVVFGGGTKLTVL
Result :: 0.18 µg/mL
